# assay_info: Human HepG2 cell viability assay in 384 well format
# Type: toxicity, cell-based
# Set-up: dose 125 nL, time 70.5 hour; concentration not given beside the values
# condition_description: HepG2 cells, read-out: Inhibition
result_type: cytotoxicity at 70.5 h (%)

compound="Cn1cncc1C(=O)N1CCOC2(COCCN(CC3CC3)C2)C1 (stereo unspecified)" result_type="cytotoxicity at 70.5 h" readout_unit=% numeric_value=-1.4
compound=COc1ccc(Cl)cc1CCNC(=O)NCc1noc(C)n1 result_type="cytotoxicity at 70.5 h" readout_unit=% numeric_value=-3.63
compound=CC(C)(C)c1ncc(C(=O)NCCNc2ncccn2)s1 result_type="cytotoxicity at 70.5 h" readout_unit=% numeric_value=-4.56
compound=COC(=O)c1ccc(NC(=O)CCc2ccco2)cc1 result_type="cytotoxicity at 70.5 h" readout_unit=% numeric_value=-8.07
compound="Cc1ccc(C2CCCCCN2Cc2cn(C)nc2C)cc1 (stereo unspecified)" result_type="cytotoxicity at 70.5 h" readout_unit=% numeric_value=-12.1
compound="CC(C)NC(=O)C1CN(C(=O)c2ccco2)CC12CCOCC2 (stereo unspecified)" result_type="cytotoxicity at 70.5 h" readout_unit=% numeric_value=-6.64
compound="CCC(=O)N1CCC(c2nc3c(c(NC)n2)CN(C)CC3)C1 (stereo unspecified)" result_type="cytotoxicity at 70.5 h" readout_unit=% numeric_value=-9.93
compound=COCc1cc(CNC(=O)c2cc(NC(C)=O)ccc2Cl)n[nH]1 result_type="cytotoxicity at 70.5 h" readout_unit=% numeric_value=-6.43
compound=O=C(NCCO)C1(Cc2cc(-c3ccc(F)cc3F)no2)CCOCC1 result_type="cytotoxicity at 70.5 h" readout_unit=% numeric_value=-12.3
compound=CC(C)[C@H](NS(C)(=O)=O)C(=O)NCc1cc(-c2ccco2)n[nH]1 result_type="cytotoxicity at 70.5 h" readout_unit=% numeric_value=-13.8
compound=CC(C)NC(=O)NC[C@H]1OC[C@@H](NCc2ccccc2F)[C@@H]1O result_type="cytotoxicity at 70.5 h" readout_unit=% numeric_value=-4.73

###

# assay_info: Human HepG2 cell viability assay in 384 well format
# Assay type: toxicity, cell-based
# Parameters: dose 125 nL, time 70.5 hour; concentration not given beside the values
# condition_description: HepG2 cells, read-out: Inhibition
// cytotoxicity at 70.5 h lookup, one value per entry
result_type: cytotoxicity at 70.5 h (%)

compound=CC(C)N1CCN(C(=O)Nc2cnc3c(cnn3C(C)C)c2)CC1 numeric_value=1.68
compound="COCCN1C(=O)CC(N2CCN(c3ccc(OC)cc3)CC2)C1=O (stereo unspecified)" numeric_value=-7.1
compound="Cc1cc(N2CCCC2c2nccnc2C)ncn1 (stereo unspecified)" numeric_value=-5.86
compound=N#Cc1cccn(CCOc2ccc(Cl)cc2)c1=O numeric_value=-1.43
compound=Cc1noc([C@H]2C[C@H]3OCC[C@H]3N(Cc3ccncc3)C2)n1 numeric_value=-7.52
compound=C=C(C)COc1ccccc1C(=O)NCCc1cc(O)nc(C)n1 numeric_value=-11.9

###

// cytotoxicity at 70.5 h lookup, one value per entry
# assay_info: Human HepG2 cell viability assay in 384 well format
# Assay type: toxicity, cell-based
# Set-up: dose 125 nL, time 70.5 hour; concentration not given beside the values
# condition_description: HepG2 cells, read-out: Inhibition
result_type: cytotoxicity at 70.5 h (%)

molecule=Cc1ccc(Br)c(S(=O)(=O)NCc2cnn(C)c2)c1 result_type="cytotoxicity at 70.5 h" numeric_value=-5.3
molecule=Cc1ccc(C)c(NC(=O)c2cc(S(=O)(=O)N3CCSCC3)c[nH]2)c1 result_type="cytotoxicity at 70.5 h" numeric_value=7.14
molecule="CCc1nnc(CN2CCCCC2Cn2cncn2)o1 (stereo not drawn)" result_type="cytotoxicity at 70.5 h" numeric_value=10.6
molecule=O=C(N[C@@H]1CCN(c2ncc(Cl)cc2Cl)C[C@H]1O)c1cnccn1 result_type="cytotoxicity at 70.5 h" numeric_value=-2.1
molecule=Cn1nc(C(=O)N2CCC(Oc3ccc(C#N)cn3)CC2)ccc1=O result_type="cytotoxicity at 70.5 h" numeric_value=-11
molecule=Cc1ccc(CN(CCCn2ccnc2)Cc2cc(F)ccc2F)s1 result_type="cytotoxicity at 70.5 h" numeric_value=20.3
molecule=CCn1c(CN2CCC(O)(c3ccc4c(c3)OCO4)CC2)cnc1SC result_type="cytotoxicity at 70.5 h" numeric_value=1.92
molecule=CN(C)C(=O)CS(=O)(=O)Cc1ccn(-c2cccc(F)c2)n1 result_type="cytotoxicity at 70.5 h" numeric_value=-3.31
molecule=CCn1cc(NC(=O)C2CCN(Cc3ccccc3)CC2)cn1 result_type="cytotoxicity at 70.5 h" numeric_value=2.21
molecule=COc1ccc(NC(=O)N(CCO)Cc2ccsc2)c(OC)c1 result_type="cytotoxicity at 70.5 h" numeric_value=0.461
molecule=N#Cc1ccc(N2CCN(c3cnccn3)CC2)cc1C(F)(F)F result_type="cytotoxicity at 70.5 h" numeric_value=24.7
molecule="COCC(=O)NC(CC(C)C)c1nc2cccnc2n1C (stereo not drawn)" result_type="cytotoxicity at 70.5 h" numeric_value=20.7
molecule=CCCS(=O)(=O)N1C[C@@H](Oc2ncccc2F)[C@H]2OCCC[C@H]21 result_type="cytotoxicity at 70.5 h" numeric_value=-10.6
molecule="COc1cc(OC)c2c(=O)oc(CC(O)CC(C)=O)cc2c1 (stereo not drawn)" result_type="cytotoxicity at 70.5 h" numeric_value=9.76
molecule="Cc1cnn(CCNCC(O)COc2c(C)ccc(C)c2C)c1 (stereo not drawn)" result_type="cytotoxicity at 70.5 h" numeric_value=-5.42
molecule="CC(C)(C)CC(NC(=O)N1CCC(C(N)=O)CC1)C(F)(F)F (stereo not drawn)" result_type="cytotoxicity at 70.5 h" numeric_value=5.66
molecule="CN1CCN(C)C(CNc2c(C#N)cnc3ccc(Cl)cc23)C1 (stereo not drawn)" result_type="cytotoxicity at 70.5 h" numeric_value=-8.13
molecule="COC(=O)C(C)CN(C)S(=O)(=O)c1c(Br)cc2[nH]c(=O)oc2c1Cl (stereo not drawn)" result_type="cytotoxicity at 70.5 h" numeric_value=-4.98
molecule=O=C(CC[C@@H]1CCCN2CCCC[C@H]12)N1CCC(c2nnc[nH]2)CC1 result_type="cytotoxicity at 70.5 h" numeric_value=-7.68
molecule="COc1cc(C)cc(C(C(=O)O)N(C)CCN2CCCC2)c1OC (stereo not drawn)" result_type="cytotoxicity at 70.5 h" numeric_value=-2.88
molecule="CN(Cc1ccc(C#N)cc1)CC1CCS(=O)(=O)C1 (stereo not drawn)" result_type="cytotoxicity at 70.5 h" numeric_value=-8.96
molecule="Cc1nn(C)c(C)c1C1CCCN1C(=O)c1ccc(C(N)=O)s1 (stereo not drawn)" result_type="cytotoxicity at 70.5 h" numeric_value=17.5
molecule="CSCC(C)CNC(=O)N1CCSC(C)(C)C1 (stereo not drawn)" result_type="cytotoxicity at 70.5 h" numeric_value=-2.74
molecule=c1ccc(Oc2nccc3occc23)c(CN2CCCCC2)c1 result_type="cytotoxicity at 70.5 h" numeric_value=6.4
molecule=CCN(CC)S(=O)(=O)c1cc(NC(=O)CCc2cscn2)ccc1C result_type="cytotoxicity at 70.5 h" numeric_value=-6.12
molecule="Cc1cccc(CNCC2COC3(CCCC3)O2)c1C (stereo not drawn)" result_type="cytotoxicity at 70.5 h" numeric_value=3.58
molecule="CC1CC2(CCN(C(=O)c3csnn3)CC2)c2ccccc21 (stereo not drawn)" result_type="cytotoxicity at 70.5 h" numeric_value=0.655
molecule="O=C(NCc1cc[nH]n1)N1CCCC(N2CCCC2)C1 (stereo not drawn)" result_type="cytotoxicity at 70.5 h" numeric_value=-4.82
molecule=CCCc1nc(C(=O)N2CCn3nc(C(=O)OC)cc3C2)cs1 result_type="cytotoxicity at 70.5 h" numeric_value=16.6
molecule=O=C(CCn1c(C(F)F)cc2cccnc21)NC1CC1 result_type="cytotoxicity at 70.5 h" numeric_value=-5.74
molecule="CCN(Cc1cn(CC2CCNCC2)nn1)CC1CCCO1 (stereo not drawn)" result_type="cytotoxicity at 70.5 h" numeric_value=-6.79
molecule="Cc1ccc(CNCC(C)Oc2ccccn2)cc1 (stereo not drawn)" result_type="cytotoxicity at 70.5 h" numeric_value=-33.7
molecule=COc1ccc(N2Cc3nc(=O)[nH]n3C2=O)cc1 result_type="cytotoxicity at 70.5 h" numeric_value=6.34
molecule=Cc1oc(C(=O)Nc2cccc(Cl)c2C)cc1S(N)(=O)=O result_type="cytotoxicity at 70.5 h" numeric_value=0.43
molecule="Cc1ccccc1N1CCN(c2ccncn2)C(C)C1 (stereo not drawn)" result_type="cytotoxicity at 70.5 h" numeric_value=-2.86
molecule="COc1ccccc1N1CCC(NCc2c(C)noc2C)C1 (stereo not drawn)" result_type="cytotoxicity at 70.5 h" numeric_value=30
molecule="O=C(NCc1nncn1C1CCCCC1)C1CNCCO1 (stereo not drawn)" result_type="cytotoxicity at 70.5 h" numeric_value=-6.16
molecule="CNC(=O)CN1C(=O)CCC12CCCN(Cc1ccccn1)C2 (stereo not drawn)" result_type="cytotoxicity at 70.5 h" numeric_value=2.52
molecule="Cc1cncc(C2CCCN(C(=O)c3cn(C)nc3C)C2)n1 (stereo not drawn)" result_type="cytotoxicity at 70.5 h" numeric_value=-3.29
molecule="CNS(=O)(=O)c1ccc(CNC(=O)NCC2CCOC2)cc1 (stereo not drawn)" result_type="cytotoxicity at 70.5 h" numeric_value=-31.2
molecule=COc1ccc(CCNC(=O)CN2CCOCS2(=O)=O)cc1 result_type="cytotoxicity at 70.5 h" numeric_value=-8.13
molecule=Cc1ccsc1-c1nc(CN(C)Cc2cc[nH]n2)c(C)o1 result_type="cytotoxicity at 70.5 h" numeric_value=12.8
molecule="O=C(CCNS(=O)(=O)c1ccccc1)N1CCOC(c2ccccc2)C1 (stereo not drawn)" result_type="cytotoxicity at 70.5 h" numeric_value=-18
molecule=Cc1ccc(S(=O)(=O)NCCc2nnc[nH]2)c2cccnc12 result_type="cytotoxicity at 70.5 h" numeric_value=15.2
molecule=O=C(c1csnn1)N1CCc2ccccc21 result_type="cytotoxicity at 70.5 h" numeric_value=2.68
molecule="CCC1c2ccsc2CCN1C(=O)NCc1ccccn1 (stereo not drawn)" result_type="cytotoxicity at 70.5 h" numeric_value=-6.47
molecule="CC(c1cccc(Cl)c1)N1CCN(S(C)(=O)=O)CC1 (stereo not drawn)" result_type="cytotoxicity at 70.5 h" numeric_value=-1.61
molecule=O=C1CCCN1CCN1CC[C@@]2(O)CCN(c3ncccn3)C[C@H]2C1 result_type="cytotoxicity at 70.5 h" numeric_value=15.5
